Exercise: state measured log10 of kon for each of the binders provided.
Measurement target: T1, ROR1 extracellular domain Fc-fusion, dimer (human, UniProt Q01973 30-406)
T1 construct: also called ROR1 dimer; hROR1 dimeric ECD-Fc fusion protein; not shown: Fc part
T1 sequence (Q01973 30-406): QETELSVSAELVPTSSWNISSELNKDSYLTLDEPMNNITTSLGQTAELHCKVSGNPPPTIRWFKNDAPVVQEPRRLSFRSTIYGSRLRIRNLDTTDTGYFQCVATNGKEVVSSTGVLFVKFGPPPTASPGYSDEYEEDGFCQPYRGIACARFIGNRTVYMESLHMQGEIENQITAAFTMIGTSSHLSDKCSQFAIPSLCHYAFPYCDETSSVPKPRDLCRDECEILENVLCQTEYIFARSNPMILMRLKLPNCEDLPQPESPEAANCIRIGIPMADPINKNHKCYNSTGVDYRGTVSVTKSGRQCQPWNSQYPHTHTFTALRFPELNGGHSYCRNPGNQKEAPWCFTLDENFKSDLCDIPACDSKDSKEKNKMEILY
Experimental details: SPR, immobilised ROR1 dimer, antibody injected, 1:1 model
Description: The binding affinities of ROR1 extracellular domain dimer and monomer for anti-ROR1 antibodies were determined by surface plasmon resonance (SPR). […] The association constant, dissociation constant, and affinity of each anti-ROR1 antibody was calculated using the Biacore T200 Evaluation Software 1:1 binding model. […]
Values are log10 of kon in M⁻¹ s⁻¹.

Input Antibody 601-9 (antibody, V domains shown) VH: QLQLQESGPGVVKPSGTLSLTCTVSGGSISRSDGYWGWVRQPPGKGLEWIGSIYDTGTTYYSPSLKSRLIISVDTSKNQFSLTLNSVTAADTAVYYCASMGGLRSSSSDAFHTWGPGTMVTVSS VL: QSVLTQPPSVSVAPGETARITCGGTNIGSESVHWYQQRPGQAPVLVVYDDTDRPSGIPERFSGSNSGNTATLTISRVEAGDGADYYCQVWDSVSDRYVFGTGTKVTVL . Output log10 of kon: 6.15

Summary for this binder, Antibody 601-149 (antibody, V domains shown) VH: EAQLVESGGGLVKPGGSLRLSCAASGFTFSDYYMGWVRQAPGKGLKWLSYISDRAHTIYDTDSVKGRFTISRDDAKSSLYLRMNNLRVEDTAVYYCARAVGAGEGFDYWGQGTLVTVSS VL: DIQLTQSPSSLSASVGDRVTITCQASQDVRNYLNWYQQKPGKAPNLLIYDATNLESGVPSRFSGSGSGTDFTFTISSLQPEDFATYYCQQYDNLPLSFGGGTKVEIK : log10 of kon is 6.28

Form: binder = Antibody 601-70 (antibody, V domains shown) VH: EVQLVQSGAELKKPGSSVRVSCKTSGGSFKTHGISWVRQAPGQGLEWMGWINPNSGGALYVDNFQGRATMTRDTSINTAYMELRSLSSDDTAVYYCARGMADLIDVFDIWGQGTMVTVSS VL: TQPALTQPASVSGSPGQSITISCTGTSSDFGDYDYVSWYQQHPGKAPKLMIYDVSDRPSGVSNRFSGSKSGNTASLTISGLQAEDEADYFCSSFTTSSTLVFGGGTKLTVL ; log10 of kon = 6.71

Sample Antibody 601-50 (antibody, V domains shown) VH: QVQLQQSGAEVKKPGASVKVSCKASGYTFSRYYIHWVRRAPGQGLEWMGLINPGGGSTNYAQKFQGRVTMTRDTSTNTVYLELSSLRSDDTAVYYCARDYGTIDARRFDFWGQGTLVTVSS VL: QSALTQPPSASGTPGQRVTISCPGSSSNIGSNYVYWYQQLPGTAPKLLIYRNNQRPSGVPDRFSGSKSGTSATLGITGLQTGDEADYYCGTWDSSLSAYVFGTGTKVTVL ; log10 of kon observed: 5.97

For this binder ( Antibody 601-4 (antibody, V domains shown) VH: EVQLVQSGPGLVKPSGTLSLTCAVSGGSISSSNWWSWVRQPPGKGLEWIGEIYHSGSTNYNPSLKSRVTISVDKSKNQFSLKLGSVTAADTATYYCARDLWLGEWDLWGQGTLVTVSS VL: QSVLTQPPSASGAPGQRVTISCSGGISNVGTNGVNWYQHLPGTAPKLLVDAMNQRPSGVPDRFSGSRSGTSGSLAITGLRSEDEADYYCATWDDSLSGVLFGGGTKLTVLG ), measured log10 of kon is 6.56

For Antibody 601-66 (antibody, V domains shown) VH: QVQLVQSGAEVKEPGASVKVSCKASGYTFRNSGITWVRQAPGQGLEWMGWINPNSGGAMYVDNFQGRATMTRDTSINTAYMELRSLSSDDTAVYYCARGMADLIDVFDIWGQGTLVTVSS VL: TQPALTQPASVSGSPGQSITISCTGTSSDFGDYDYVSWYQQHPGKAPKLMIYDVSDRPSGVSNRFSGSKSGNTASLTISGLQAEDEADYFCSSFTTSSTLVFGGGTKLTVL the binder record lists log10 of kon as 6.49

Reported log10 of kon of Antibody 601-13 (antibody, V domains shown) VH: EVQLVQSGAEVKKPGSSVKVSCKASGGTFSTFAINWVRQAPGQGLEWMGGVIPVSGTEDYSQKFQGRLSLTADESTGTAYMELSSLRSDDTAVYYCARDRSGRDWDYFDYWGQGTLVTVSS VL: DIVMTQSPSSLSASVGDRVTITCQASQDISNYLNWYQQKPGKAPKLLIYDASNLETGVPSRFSGSGSGTDFIFTISSLQPEDIATYYCQQFDNLPYTFGQGTKVEIKR : 6.20

Sample Antibody 601-14 (antibody, V domains shown) VH: QVQLVQSGAEVKKPGESLKISCKDSGYSFTNYWLGWVRQMPGKGLEWMGIIYPGDSDTRYSPSFRGQVTISADKSISTAYLQWSSLKASDTAMYYCARLNLATHTAFDIWGQGTTVTVSS VL: QSVLTQPASVSGSPGQSITISCTGTSSDVGGYNYVSWYQQHPGKAPKLMIYDVSNRPSGVSNRFSGSKSGNTASLTISGLQAEDEADYYCSSYTSSSTLWVFGGGTKLTVLG ; log10 of kon observed: 6.43

log10 of kon measured on Antibody 601-87 (antibody, V domains shown) VH: QVQLQESGPGLVKSSETLSLTCTVSGGSMNNYYWSWIRQPAGKGLEWMGRIYSSGSTNYNPALKSRVTMSVDTSKNQFSLNLSSVTAADTAIYYCARASWSGTYWALFDYWGQGTLVTVSS VL: ETTLTQSPAFMSATPGDKVNISCKASQDIDDDLNWYQQKPGEAPILIIQEATTLVPGIPPRFSGSGFGTDFTLTINSMQSEDVAYYFCLQHDNFPPTFGQGTKVEIK = 5.88

Item: Antibody 601-119 (antibody, V domains shown) VH: QVQLVQSGGGLVKPGGSLRLSCAASGFTFGTYSMNWVRQAPGKGLEWVSSISSSSSYIYYADSVKGRFTISRDNAKNSLYLQMNSLRAEDTAVYYCARGLGGWTHDAFDIWGQGTTVTVSS VL: QSALTQPASVSASPGQSITISCTGTSSDVGGYNYVTWYQQHPGKAPKLMIYDVSKRPSGVLDRFSGSKSGNTASLTISGLQAEDEADYFCSSYTSSSTLVFGGGTKLTVLG | log10 of kon: 5.64
